# Read-out: Nuclear factor NF-kappa-B p105 subunit (Homo sapiens) (UniProt P19838)
# Sequence (P19838 whole entry, looked up): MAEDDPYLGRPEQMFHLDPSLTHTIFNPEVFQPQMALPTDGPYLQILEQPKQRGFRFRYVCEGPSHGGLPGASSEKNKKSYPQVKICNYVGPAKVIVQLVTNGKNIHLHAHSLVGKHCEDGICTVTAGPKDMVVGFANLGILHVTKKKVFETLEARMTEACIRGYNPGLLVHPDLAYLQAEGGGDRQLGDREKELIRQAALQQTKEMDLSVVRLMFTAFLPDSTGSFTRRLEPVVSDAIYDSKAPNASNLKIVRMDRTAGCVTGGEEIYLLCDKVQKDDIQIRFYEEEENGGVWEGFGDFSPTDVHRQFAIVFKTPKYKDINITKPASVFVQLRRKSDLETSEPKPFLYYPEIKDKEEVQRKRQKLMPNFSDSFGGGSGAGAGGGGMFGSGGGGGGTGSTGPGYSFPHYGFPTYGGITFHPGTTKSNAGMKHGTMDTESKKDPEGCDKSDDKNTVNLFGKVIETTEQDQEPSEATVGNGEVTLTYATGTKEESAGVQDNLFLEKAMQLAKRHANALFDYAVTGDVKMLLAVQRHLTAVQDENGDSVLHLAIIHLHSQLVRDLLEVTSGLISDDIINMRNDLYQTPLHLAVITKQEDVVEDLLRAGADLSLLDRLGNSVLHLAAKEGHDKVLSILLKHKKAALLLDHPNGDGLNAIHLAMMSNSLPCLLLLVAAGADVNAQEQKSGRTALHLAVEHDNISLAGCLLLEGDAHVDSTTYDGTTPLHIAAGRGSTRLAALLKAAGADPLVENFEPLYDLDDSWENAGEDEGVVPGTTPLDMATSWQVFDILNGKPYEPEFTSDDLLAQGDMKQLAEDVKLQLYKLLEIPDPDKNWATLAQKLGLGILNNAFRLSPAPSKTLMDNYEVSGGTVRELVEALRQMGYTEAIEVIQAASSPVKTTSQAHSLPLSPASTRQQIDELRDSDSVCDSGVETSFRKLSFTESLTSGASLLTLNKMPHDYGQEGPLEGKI
# experimental_protocol: LTEA_HepaRG_NFKB1: Life Technologies and Expression Analysis (LTEA) Assay for Nuclear Factor Kappa B Subunit 1 (NFKB1) using HepaRG (AID 2283521)
# experimental_conditions: mRNA level, 48 h; actives raise or lower the signal
Calls of active or inactive are those of the source. How the source made its calls: active means hit-call score of the fitted dose curve at least 0.9, where 1 is the maximum; inactive means score below 0.9.
The reply should be one of these categories: active, inactive

Examples with answers:
[
  {
    "smiles_code": "O=C(O)C1(c2ccc3c(c2)OC[C@H](Cc2ccc(-c4ccccc4)cc2)[C@H]3O)CCCC1",
    "discrete_label": "active"
  },
  {
    "smiles_code": "Cc1cc(C)cc(C)c1",
    "discrete_label": "inactive"
  },
  {
    "smiles_code": "Clc1cccc(Cl)c1Cl",
    "discrete_label": "inactive"
  },
  {
    "smiles_code": "Clc1cccc(Cl)c1",
    "discrete_label": "inactive"
  }
]

Just curious, what result did Oc1cc(Cl)c(Cl)cc1Cl get here?
inactive

====

# experimental_protocol: ATG_ISRE_CIS: Attagene CIS-FACTORIAL HepG2 Assay for human Interferon Regulatory Factor 1 (IRF1) binding to an Interferon-Stimulated Response Element (ISRE) (AID 2282948)
# experimental_conditions: HepG2 ISRE cis-reporter (Attagene), mRNA transcription readout; actives raise or lower the signal
Calls of active or inactive are those of the source. Rule for the calls: active = hit-call score of the fitted dose curve at least 0.9, where 1 is the maximum; inactive = score below 0.9.
The reply should be one of these categories: TRUE (active), FALSE (inactive)

Examples with answers:
[
  {
    "smiles_code": "CNC(=O)CSP(=O)(OC)OC",
    "discrete_label": "FALSE"
  },
  {
    "smiles_code": "NC(=O)c1ccc(N)nc1",
    "discrete_label": "FALSE"
  },
  {
    "smiles_code": "Cc1ccc(OP(=O)(Oc2ccc(C)cc2C)Oc2ccc(C)cc2C)c(C)c1",
    "discrete_label": "FALSE"
  },
  {
    "smiles_code": "C=CCOC(F)(C(F)(F)F)C(F)(F)F",
    "discrete_label": "FALSE"
  },
  {
    "smiles_code": "OCC(c1ccc(Cl)cc1)c1ccc(Cl)cc1",
    "discrete_label": "TRUE"
  },
  {
    "smiles_code": "C[N+](C)(C)Cc1ccccc1",
    "discrete_label": "FALSE"
  }
]

Just curious, what result did CCOc1cc(C=O)ccc1O get here?
FALSE

Just curious, what result did CCCCCCCCCCCCN(C)C get here?
FALSE

Just curious, what result did CC(c1ccccc1)(c1ccc(O)cc1)c1ccc(O)cc1 get here?
TRUE

Just curious, what result did Cc1cc(Cl)ccc1N get here?
FALSE

Just curious, what result did O=C1C[C@@H]2OCC=C3CN4CC[C@]56c7ccccc7N1[C@H]5[C@H]2[C@H]3C[C@H]46 get here?
FALSE

Just curious, what result did NNCCO get here?
FALSE

Just curious, what result did CN(N=O)C(N)=O get here?
FALSE

Just curious, what result did CC(c1ccc(O)cc1)c1ccc(O)cc1 get here?
FALSE

Just curious, what result did C=CCc1ccccc1O get here?
FALSE

Just curious, what result did O=S1(=O)OC(c2cc(Br)c(O)c(Br)c2)(c2cc(Br)c(O)c(Br)c2)c2ccccc21 get here?
FALSE

====

# experimental_protocol: ATG_PPRE_CIS: Attagene CIS-FACTORIAL HepG2 Assay for human Peroxisome Proliferator-activated Response Element (PPRE) (AID 2282958)
# experimental_conditions: HepG2 PPRE cis-element reporter, Attagene transcription factor profiling; actives raise or lower the signal
# Experimental: ATG_CIS is a cell-based, multiplexed-readout assay that uses HepG2, a human liver cell line, with measurements taken at 24 hours after chemical dosing in a 24-well plate.ATG_PPRE_CIS is one of 52 assay component(s) measured or calculated from the ATG_CIS assay. […] This assay endpoint, ATG_PPRE_CIS, was analyzed with bidirectional fitting relative to DMSO as the negative control and baseline of activity. […]
Activity calls are given as the source filed them. How the source made its calls: active means hit-call score of the fitted dose curve at least 0.9, where 1 is the maximum; inactive means score below 0.9.
The reply should be one of these categories: active, inactive

[
  {
    "molecule": "CC1CC(=O)O1 (stereo unspecified)",
    "discrete_label": "inactive"
  },
  {
    "molecule": "CCCCOC(C)=O",
    "discrete_label": "inactive"
  },
  {
    "molecule": "CCOP(=O)(OCC)OC(=CCl)c1ccc(Cl)cc1Cl",
    "discrete_label": "inactive"
  },
  {
    "molecule": "N#CCC#N",
    "discrete_label": "inactive"
  }
]

Just curious, what result did C[CH2][Hg][S]c1ccccc1C(=O)O get here?
active

Just curious, what result did CC(C)(COCC1CO1)COCC1CO1 (stereo unspecified) get here?
inactive

Just curious, what result did O=C(Cc1ccccc1)OCCc1ccccc1 get here?
inactive

====

# experimental_protocol: ATG_NF_kB_CIS: Attagene CIS-FACTORIAL HepG2 Assay for human Nuclear Factor Kappa B (NF-kB) (AID 2282991)
# experimental_conditions: HepG2 Attagene cis-factorial NF-kB reporter mRNA; actives raise or lower the signal
Active and inactive are the calls of the source. The calls were made as follows: active = hit-call score of the fitted dose curve at least 0.9, where 1 is the maximum; inactive = score below 0.9.
The reply should be one of these categories: active, inactive

Examples with answers:
[
  {
    "compound": "ClCCCCl",
    "discrete_label": "inactive"
  },
  {
    "compound": "BrCCCCBr",
    "discrete_label": "inactive"
  },
  {
    "compound": "CCOP(=S)(OCC)SCS(=O)(=O)C(C)(C)C",
    "discrete_label": "inactive"
  },
  {
    "compound": "COC(=O)c1cc(Oc2ccc(Cl)cc2Cl)ccc1[N+](=O)[O-]",
    "discrete_label": "inactive"
  },
  {
    "compound": "C#C[C@]1(O)CC[C@H]2[C@@H]3CCC4=CC(=O)CC[C@]4(C)[C@H]3CC[C@@]21C",
    "discrete_label": "inactive"
  },
  {
    "compound": "O=C(Cc1ccccc1)OCCc1ccccc1",
    "discrete_label": "inactive"
  },
  {
    "compound": "COC(F)(C(F)(F)C(F)(F)F)C(F)(C(F)(F)F)C(F)(F)F (stereo unspecified)",
    "discrete_label": "inactive"
  },
  {
    "compound": "FC(F)OCC(F)(F)C(F)(F)F",
    "discrete_label": "inactive"
  },
  {
    "compound": "O=S(=O)(c1ccc(Cl)cc1)c1cc(Cl)c(Cl)cc1Cl",
    "discrete_label": "inactive"
  },
  {
    "compound": "COCCl",
    "discrete_label": "inactive"
  }
]

Just curious, what result did CC(c1ccccc1)(c1ccc(O)cc1)c1ccc(O)cc1 get here?
active

Just curious, what result did COC(=O)Nc1cccc(OC(=O)Nc2cccc(C)c2)c1 get here?
inactive

Just curious, what result did C#CCOC(=O)/C=C(C)/C=C/CC(C)CCCC(C)C (stereo unspecified) get here?
inactive

Just curious, what result did CCN(N=O)C(N)=O get here?
inactive

Just curious, what result did c1ccc2c(c1)Oc1ccccc1O2 get here?
inactive

Just curious, what result did ClCc1ccccc1CCl get here?
active

====

# experimental_protocol: ATG_MRE_CIS: Attagene CIS-FACTORIAL HepG2 Assay for human Metal Responsive Element (MRE) (AID 2282954)
# experimental_conditions: HepG2 MRE cis-reporter transcription, Attagene multiplex; actives raise or lower the signal
Active and inactive are the calls of the source. Rule for the calls: active = hit-call score of the fitted dose curve at least 0.9, where 1 is the maximum; inactive = score below 0.9.
The reply should be one of these categories: y for active, n for inactive

Examples with answers:
[
  {
    "molecule": "CCCCN(CCCCO)N=O",
    "discrete_label": "n"
  },
  {
    "molecule": "CCCCCCCCCCCCN(C)C",
    "discrete_label": "n"
  },
  {
    "molecule": "CCOC(=O)CC(=O)CCl",
    "discrete_label": "y"
  },
  {
    "molecule": "C#CCOC(=O)/C=C(C)/C=C/CC(C)CCCC(C)C (centres undefined)",
    "discrete_label": "n"
  }
]

Just curious, what result did OC[P+](CO)(CO)CO get here?
n

Just curious, what result did O=c1nc(O)n(Cl)c(=O)n1Cl get here?
n

Just curious, what result did COc1nn(C(=O)NS(=O)(=O)c2ccccc2OC(F)(F)F)c(=O)n1C get here?
n

Just curious, what result did C[As+](C)(C)CC(=O)[O-] get here?
n

Just curious, what result did ClCCCCl get here?
n

====

# study_target: CCAAT/enhancer-binding protein beta (Homo sapiens) (UniProt P17676)
# Sequence (P17676 whole entry, looked up): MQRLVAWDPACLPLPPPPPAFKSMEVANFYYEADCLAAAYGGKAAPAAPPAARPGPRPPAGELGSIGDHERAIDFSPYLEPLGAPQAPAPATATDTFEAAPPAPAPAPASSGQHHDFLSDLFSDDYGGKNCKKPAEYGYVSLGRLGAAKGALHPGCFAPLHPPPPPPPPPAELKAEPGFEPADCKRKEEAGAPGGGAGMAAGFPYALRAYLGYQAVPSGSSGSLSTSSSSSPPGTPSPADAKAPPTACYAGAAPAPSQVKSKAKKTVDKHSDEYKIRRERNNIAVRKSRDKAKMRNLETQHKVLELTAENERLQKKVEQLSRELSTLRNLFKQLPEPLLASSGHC
# experimental_protocol: ATG_C_EBP_CIS: Attagene CIS-FACTORIAL HepG2 Assay for human CCAAT/Enhancer Binding Protein (C/EBP) beta (AID 2282927)
# experimental_conditions: HepG2 Attagene cis-factorial transcription factor reporter; actives raise or lower the signal
Activity calls are given as the source filed them. Rule for the calls: active = hit-call score of the fitted dose curve at least 0.9, where 1 is the maximum; inactive = score below 0.9.
quantity_name: AC50

[
  {
    "smiles_code": "C[C@@H]1O[C@@H](O[C@H]2C[C@@H](O)[C@]3(CO)[C@H]4[C@H](O)C[C@]5(C)[C@@H](C6=CC(=O)OC6)CC[C@]5(O)[C@@H]4CC[C@]3(O)C2)[C@H](O)[C@H](O)[C@H]1O",
    "quantity_name": "AC50",
    "result": "71.6 nM (active)"
  },
  {
    "smiles_code": "COCCl",
    "quantity_name": "AC50",
    "result": "inactive"
  },
  {
    "smiles_code": "CC(c1ccccc1)(c1ccc(O)cc1)c1ccc(O)cc1",
    "quantity_name": "AC50",
    "result": "inactive"
  },
  {
    "smiles_code": "COc1ccc(N)cc1",
    "quantity_name": "AC50",
    "result": "inactive"
  }
]
